Data provenance: paper PMC10983004

Target: TET1CD (Homo sapiens)
Sequence (Q8NFU7 1418-2136): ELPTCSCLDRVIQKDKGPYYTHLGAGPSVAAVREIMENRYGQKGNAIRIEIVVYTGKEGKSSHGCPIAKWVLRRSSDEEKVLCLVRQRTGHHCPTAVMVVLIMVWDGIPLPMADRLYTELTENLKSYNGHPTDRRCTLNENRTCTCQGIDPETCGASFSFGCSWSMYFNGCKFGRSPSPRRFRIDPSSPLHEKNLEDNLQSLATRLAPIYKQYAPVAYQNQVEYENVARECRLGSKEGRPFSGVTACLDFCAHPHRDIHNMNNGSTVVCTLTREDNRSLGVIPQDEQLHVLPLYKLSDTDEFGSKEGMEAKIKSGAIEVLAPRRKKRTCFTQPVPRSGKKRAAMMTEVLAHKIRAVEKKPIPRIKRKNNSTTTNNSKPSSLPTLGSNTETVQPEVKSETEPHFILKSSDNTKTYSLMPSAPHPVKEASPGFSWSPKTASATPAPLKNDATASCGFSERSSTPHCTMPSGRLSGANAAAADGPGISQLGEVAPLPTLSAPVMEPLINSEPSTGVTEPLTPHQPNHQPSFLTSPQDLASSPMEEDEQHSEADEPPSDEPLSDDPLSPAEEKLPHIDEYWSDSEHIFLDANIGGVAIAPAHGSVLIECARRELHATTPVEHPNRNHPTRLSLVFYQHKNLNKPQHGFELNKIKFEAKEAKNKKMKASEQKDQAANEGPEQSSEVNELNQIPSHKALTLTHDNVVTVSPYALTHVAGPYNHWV
Test: biochemical
Conditions: read-out: IC50 TET1CD (AlphaScreen)
measured attribute: IC50 (µM)
// units = µM; emit number, no label

smiles code	IC50 / µM
O=C(O)CNC(=O)C(=O)O	13

Next, consider the following compound.
Recorded IC50 (compound `Cc1[nH]c2ccccc2c1CCNCc1ccc(/C=C/C(=O)NO)cc1` ): 4.2
